Test system: Escherichia coli ATCC 25922
Assay: Minimal Inhibitory Concentration (MIC) determination, broth microdilution (CLSI M07-A10)
Format: cell-based
Assay Context: Escherichia coli, ATCC25922, strain Escherichia coli ATCC 25922, 18-24 hours at 35±2° C., lowest concentration for complete growth inhibition (no visible growth), read-out: Escherichia coli growth inhibition MIC
Experimental: Minimal Inhibitory Concentration (MIC) Determination: The MIC of antibacterial compounds against multiple species and strains was determined using the broth microdilution method according to M07-A10 Clinical and Laboratory Standards Institute (CLSI) guidelines, using the appropriate broth medium. […] The MIC value of each compound, expressed as μg/mL, was determined as the lowest concentration required for complete growth inhibition (no visible growth). • [1] […]
Metric: MIC (µg/mL)

Worked cases, answers included:
>  <Molecule>
CNCc1nc2cc3c(c(F)c2o1)CC(CN1CCC2(CC1)CN(c1ccc4c(n1)NC(=O)CO4)C(=O)O2)C3 (single isomer, unassigned) [Example 136]

>  <Unit String>
µg/mL

>  <MIC>
1

$$$$
>  <Molecule>
C[C@H](N)c1nc2cc3c(c(F)c2o1)CC(CN1CCC2(CC1)CN(c1cnc4c(n1)NC(=O)CO4)C(=O)O2)C3 (stereo partly drawn) [Example 97]

>  <Unit String>
µg/mL

>  <MIC>
0.125

$$$$
>  <Molecule>
CN(C)CC(=O)N(C)CCn1nnc2c(F)c3c(c(F)c21)CC(CN1CCC2(CC1)CN(c1cnc4c(n1)NC(=O)CO4)C(=O)O2)C3 (single isomer, unassigned) [Example 152]

>  <Unit String>
µg/mL

>  <MIC>
2

$$$$

[I] CN(C)Cc1nc2c(F)c3c(c(F)c2[nH]1)CC(CNCCC1CN(c2cnc4c(n2)NC(=O)CO4)C(=O)O1)C3 (stereo not drawn) [Example 2]
[II] CNCc1nc2c(F)c3c(c(F)c2n1C)CC(CN1CCC2(CC1)CN(c1cnc4c(n1)NC(=O)CO4)C(=O)O2)C3 (stereo not drawn) [Example 33]
Q: Select one. Lower MIC: I or II // return label of chosen record
A: II

[1] CO[C@@H]1CN[C@@H](c2nc3c(F)c4c(c(F)c3[nH]2)CC(CN2CCC3(CC2)CN(c2cnc5c(n2)NC(=O)CO5)C(=O)O3)C4)C1 [Example 37]
[2] CNCc1nc2c(F)c3c(cc2o1)CC(CN1CCC2(CC1)CN(c1cnc4c(n1)NC(=O)CO4)C(=O)O2)C3 (stereo not drawn) [Example 93]
[3] CN[C@H](CO)Cc1nc2c(F)c3c(c(F)c2[nH]1)CC(CN1CCC2(CC1)CN(c1cnc4c(n1)NC(=O)CO4)C(=O)O2)C3 [Example 57]
[4] NCCn1c(=O)n(CCN)c2c(F)c3c(c(F)c21)CC(CN1CCC2(CC1)CN(c1cnc4c(n1)NC(=O)CO4)C(=O)O2)C3.O=C(O)C(F)(F)F [Example 43]
Q: Returns the items ordered by MIC, from maximum to minimum. Give your ranking as a list of the labels in the requested order.
A: 4, 3, 1, 2

* * *

System: Escherichia coli ATCC 25922
Assay: Minimal Inhibitory Concentration (MIC) determination, broth microdilution (CLSI M07-A10)
Type: cell-based
Assay Context: Escherichia coli, ATCC25922, strain Escherichia coli ATCC 25922, 18-24 hours at 35±2° C., lowest concentration for complete growth inhibition (no visible growth), read-out: Escherichia coli growth inhibition MIC
Metric: MIC (mg/L)

Worked cases, answers included:
>  <Compound>
O=C(O)C(F)(F)F.O=C1COc2ncc(N3CC4(CCN(CC5Cc6c(c(F)c7[nH]c([C@@H]8CCCN8)nc7c6F)C5)CC4)OC3=O)nc2N1

>  <Unit String>
mg/L

>  <MIC>
0.125

$$$$
>  <Compound>
Nc1nc2c(F)c3c(c(F)c2[nH]1)CC(CN1CCC2(CC1)CN(c1cnc4c(n1)NC(=O)CO4)C(=O)O2)C3

>  <Unit String>
mg/L

>  <MIC>
0.25

$$$$
>  <Compound>
Nc1cnc2c(F)c3c(c(F)c2n1)CC(CN1CCC2(CC1)CN(c1cnc4c(n1)NC(=O)CO4)C(=O)O2)C3 (stereo not drawn)

>  <Unit String>
mg/L

>  <MIC>
0.5

$$$$

[P] O=C1COc2ncc(N3CC4(CCN(CC5Cc6cc7nn(C8CNC8)nc7c(F)c6C5)CC4)OC3=O)nc2N1 (single isomer, unassigned)
[Q] NC1(Cn2nnc3c(F)c4c(c(F)c32)CC(CN2CCC3(CC2)CN(c2cnc5c(n2)NC(=O)CO5)C(=O)O3)C4)CC1 (stereo not drawn)
Q: Could you kindly indicate whether P or Q has the higher MIC value? // return label of chosen record
A: P
(P: 0.5 mg/L, Q: 0.25 mg/L)

* * *

System: Escherichia coli ATCC 25922
Assay: Minimal Inhibitory Concentration (MIC) determination, broth microdilution (CLSI M07-A10)
Format: cell-based
Assay Context: Escherichia coli, ATCC25922, strain Escherichia coli ATCC 25922, 18-24 hours at 35±2° C., lowest concentration for complete growth inhibition (no visible growth), read-out: Escherichia coli growth inhibition MIC
Metric: MIC (µg/mL)

>  <Compound>
CNCC(=O)Nc1nc2c(F)c3c(c(F)c2[nH]1)CC(CN1CCC2(CC1)CN(c1cnc4c(n1)NC(=O)CO4)C(=O)O2)C3

>  <MIC, µg/mL>
0.125

$$$$

[A] CNCc1nc2cc3c(c(F)c2o1)CC(CN1CCC2(CC1)CN(c1cnc4c(n1)NC(=O)CO4)C(=O)O2)C3 (single isomer, unassigned)
[B] CNCC(=O)NCCn1nnc2c(F)c3c(c(F)c21)CC(CN1CCC2(CC1)CN(c1cnc4c(n1)NC(=O)CO4)C(=O)O2)C3 (stereo not drawn)
Q: Select one. Lower MIC: A or B // return label of chosen record
A: A

* * *

System: Escherichia coli ATCC 25922
Assay: Minimal Inhibitory Concentration (MIC) determination, broth microdilution (CLSI M07-A10)
Format: cell-based
Assay Context: Escherichia coli, ATCC25922, strain Escherichia coli ATCC 25922, 18-24 hours at 35±2° C., lowest concentration for complete growth inhibition (no visible growth), read-out: Escherichia coli growth inhibition MIC
Metric: MIC (µg/mL)

Worked cases, answers included:
>  <Compound>
O=C1COc2ncc(N3CC4(CCN(CC5Cc6c(c(F)c7nn(CCNC(=O)[C@H]8CCCN8)nc7c6F)C5)CC4)OC3=O)nc2N1 [Example 158]

>  <MIC / µg/mL>
0.25

$$$$
>  <Compound>
O=C1COc2ncc(N3CC4(CCN(CC5Cc6cc7nc([C@H]8CCN8)oc7c(F)c6C5)CC4)OC3=O)nc2N1 (single isomer, unassigned) [Example 108]

>  <MIC / µg/mL>
0.25

$$$$
>  <Compound>
C[C@H](O)[C@@H](N)c1nc2c(F)c3c(c(F)c2[nH]1)CC(CN1CCC2(CC1)CN(c1cnc4c(n1)NC(=O)CO4)C(=O)O2)C3 [Example 36]

>  <MIC / µg/mL>
0.5

$$$$

[I] O=C1COc2ncc(N3CC4(CCN(CC5Cc6c(c(F)c7c(nnn7CCNC(=O)[C@H]7C[C@H](O)CN7)c6F)C5)CC4)OC3=O)nc2N1 (stereo partly drawn) [Example 164]
[II] O=C(O)C(F)(F)F.O=C1COc2ncc(N3CC4(CCN(CC5Cc6c(c(F)c7[nH]c([C@H]8C[C@H](O)CN8)nc7c6F)C5)CC4)OC3=O)nc2N1 [Example 49]
[III] O=C1COc2ncc(N3CC4(CCN(CC5Cc6c(c(F)c7nn(CCNC(=O)[C@H]8C[C@H](O)CN8)nc7c6F)C5)CC4)OC3=O)nc2N1 [Example 163]
Q: Arrange the 3 entries by MIC so the values rise. Give your ranking as a list of the labels in the requested order.
A: II, III, I
(II: 0.25 µg/mL, III: 0.5 µg/mL, I: 2 µg/mL)

[1] N[C@@H](CO)c1nc2cc3c(c(F)c2o1)CC(CN1CCC2(CC1)CN(c1cnc4c(n1)NC(=O)CO4)C(=O)O2)C3 (stereo partly drawn) [Example 143]
[2] Cc1nc2c(F)c3c(cc2n1CCN)CC(CN1CCC2(CC1)CN(c1cnc4c(n1)NC(=O)CO4)C(=O)O2)C3 (stereo not drawn) [Example 73]
[3] NCCn1nnc2cc3c(c(F)c21)CC(CN1CCC2(CC1)CN(c1cnc4c(n1)NC(=O)CO4)C(=O)O2)C3 (stereo not drawn) [Example 76]
Q: Returns the items ordered by MIC, from maximum to minimum. Give your ranking as a list of the labels in the requested order.
A: 2, 1, 3
(2: 2 µg/mL, 1: 0.25 µg/mL, 3: 0.125 µg/mL)

[a] NCCn1c(=O)[nH]c2c(F)c3c(c(F)c21)CC(CN1CCC2(CC1)CN(c1cnc4c(n1)NC(=O)CO4)C(=O)O2)C3 (stereo not drawn) [Example 44]
[b] CNCCn1nnc2c(F)c3c(c(F)c21)CC(CN1CCC2(CC1)CN(c1cnc4c(n1)NC(=O)CO4)C(=O)O2)C3 (single isomer, unassigned) [Example 118]
Q: Select one. Lower MIC: a or b // return label of chosen record
A: b
(b: 0.125 µg/mL, a: 0.25 µg/mL)
